biological target: Virion infectivity factor (Human immunodeficiency virus type 1 group M subtype B (isolate BH10)) + Virion infectivity factor (Human immunodeficiency virus type 1 group M subtype B (isolate BRU/LAI)) + Virion infectivity factor (Human immunodeficiency virus type 1 group M subtype B (isolate PCV12)) + Virion infectivity factor (Human immunodeficiency virus type 1 group M subtype B (isolate HXB2)) + DNA dC->dU-editing enzyme APOBEC-3G (Homo sapiens) (UniProt P69720+P69721+P69722+P69723+Q9HC16); experiment: inhibitors of Vif binding to APOBEC3G peptide, primary screen, biochemical, TR-FRET, GST-Vif 1-94, biotin-A3G peptide, dose response retest (AID 1117319); conditions: hits give high values;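 note: Vif residues 1-94 fused to GST binding biotinylated APOBEC3G peptide 110-148; 0% = full assay without inhibitor and 100% = GST in place of GST-Vif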
Screen size: about 260,000 compounds; about 1,500 (0.58%) were called active. Another 5% or so got no clear call; they are omitted. These entries were drawn from the full list. Potency and affinity values are given separately.
Let's look at some compounds and their measured inhibition.
ASSAY_METRIC: inhibition (%)

COMPOUND | OBSERVED_MEASUREMENT
CCn1c(SCC(=O)Nc2cc(C)on2)nnc1-c1ccccc1 | -1.57
O=C(N/N=C/c1cccc([N+](=O)[O-])c1)c1cccc2cc[nH]c12 | -4.35
CCCCN1CC(COCc2ccccc2)Oc2cc(Br)ccc2S1(=O)=O (stereo unspecified) | -3.27
CCN=c1scc(-c2cccs2)n1/N=C/c1cc(OC)ccc1O | 11.2
COc1ccc(C(Nc2ccccn2)c2oc(CO)cc(=O)c2O)cc1 (stereo unspecified) | 20.9
COc1ccc(/C=N/NC(=O)c2cc(-c3ccccc3OC)nc3ccccc23)cc1COC(C)=O | -2.13
O=C(O)C1CC(=O)N(c2ccc(OCc3ccc(Cl)cc3Cl)cc2)C1 (stereo unspecified) | 4.2
CC1CN(C(=O)COC(=O)c2cnc(Cl)c(Cl)c2)CC(C)O1 (stereo unspecified) | -12.2
Cc1cccc(NC(=O)C2SC(=Nc3c(C)cccc3C)C(C(=O)N3CCOCC3)=C2N)c1 (stereo unspecified) | 13.6
CCCCn1c(SCC(=O)Nc2cc(C)on2)nnc1-c1cccnc1 | -3.02
COc1ccc(C(=Cc2cc(OC)c(OC)cc2[N+](=O)[O-])C(=O)O)cc1 | 2.43
CC(C)(C)C(=O)Cn1c[n+](N)cn1 | 2.71
COc1ccc(C(=O)NNC(=O)c2ccc(C)cc2)cc1S(=O)(=O)N1CCCC1 | -1.1
CN=c1scc(-c2ccccc2F)n1/N=C/c1ccc[nH]1 | 3.11
C=CCn1c(SCC(=O)NCCCC(=O)OCC)nc2scc(-c3ccco3)c2c1=O | -13
COc1ccc(-c2cc(C(=O)NCC3CCCO3)c3ccccc3n2)cc1 (stereo unspecified) | -7.4
CCOc1ccc(-c2cc(N3C(=O)Nc4ccccc4N3O)on2)cc1 | 19.2
CC(=O)c1ccc(-n2c(CCC(=O)O)ccc2-c2cccs2)cc1 | 7.93
CCn1cc(S(=O)(=O)Nc2nc3ccc(OC)cc3s2)cn1 | -2.85
Cc1cccc(Nc2cnn(C34CC5CC(CC(CC(=O)O)(C5)C3)C4)c(=O)c2Cl)c1 | 5.69
CN=c1scc(C)n1/N=C/c1cc(Br)c(O)c(OC)c1 | 17.7
Cc1ccc(NC(=O)C(NC2CCCC2)c2ccccc2)cc1Cl (stereo unspecified) | 21.3
Cc1cc([N+](=O)[O-])nn1CC(=O)N1CCc2ccccc2C1 | -2.29
CC(OC(=O)c1ccc2c(c1)OCCO2)C(=O)NC1CCCCC1C (stereo unspecified) | -7.15
CCNC(=S)N/N=C/c1c(C)nn(-c2cccc(Cl)c2)c1Cl | 5.39
COc1cccc(-n2c(SC)nnc2-c2cnccn2)c1 | -0.18
Cc1ccc(-n2c(CCC(=O)O)ccc2-c2cccs2)cc1 | 9.93
O=C(Nc1cccc(S(=O)(=O)NC2=NCCC2)c1)c1cc(-c2ccco2)nc2ccccc12 | -0.28
COCCN=c1scc(-c2cccs2)n1/N=C(\C)c1ccco1 | -4.46
CCS(=O)(=O)Nc1ccc(NC(C)=O)cc1 | 10.1
Oc1ccc(NCc2ccc(OCc3ccccc3)cc2)cc1 | 17.4
